system: P12-Ichikawa; assay: cell viability relative to DMSO control; higher = less cytotoxic; details: HPLM + 10% dialyzed FBS; 48 h; 0.00702 µM
test.readout: cell viability (%)
Numbers only, in %.

CC1=C(C)C2=C(S1)[N]3C(=NN=C3[C@H](CC(=O)OC(C)(C)C)/N=C2/C4=CC=C(Cl)C=C4)C = 97.1

List cell viability for every entry below, keeping the order given.
1. CC(=O)SCC(Cc1ccccc1)C(=O)NCC(=O)OCc1ccccc1 (centres undefined)
2. CCOP(=O)(OCC)C(C)NC(=O)N(CCCl)N=O (centres undefined)

103
132

* * *

system: P12-Ichikawa; test: AUC of viability dose-response curve (% viability x log10 dose units); higher = less sensitive; conditions: HPLM + 10% dialyzed FBS; 48 h
test.readout: AUC of viability dose-response curve
Give bare numbers.

List AUC of viability dose-response curve for every entry below, keeping the order given.
1. CC1=C(C)C2=C(S1)[N]3C(=NN=C3[C@H](CC(=O)OC(C)(C)C)/N=C2/C4=CC=C(Cl)C=C4)C
2. C[Se]CCC(N)C(=O)O (stereo not given)
3. O=C(NCc1ccccc1)[C@H](Cc1ccccc1)NC(=O)[C@H]1O[C@@H]1C(=O)NCCc1ccc(O)cc1

1: 311; 2: 407; 3: 468

For every item below, please supply its AUC of viability dose-response curve.
1. CN(C)C(=O)COC(=O)Cc1ccc(OC(=O)c2ccc(NC(=N)N)cc2)cc1
2. COC1=CC=C(C=C1)C/2=C/OC3=CC(=CC=C3C2=O)O

1. 446
2. 451

* * *

test system: P12-Ichikawa; assay: AUC of viability dose-response curve (% viability x log10 dose units); higher = less sensitive; conditions: RPMI 5 mM glucose + 10% FBS; 48 h
test.readout: AUC of viability dose-response curve
Numbers only.

Recorded results for 3 compounds are shown here.
CC1(C)CC(=O)c2c(C(F)(F)F)nn(-c3ccc(C(N)=O)c(NC4CCC(OC(=O)CN)CC4)c3)c2C1 (stereo unspecified) = 297
N=C(N)c1ccc(OCCCCCOc2ccc(C(=N)N)cc2)cc1 = 456
Nc1ccc([S+](=O)([O-])Nc2ccccn2)cc1 = 439

Quick request: AUC of viability dose-response curve for each listed item, please.
1. O=C(Oc1ccc([N+](=O)[O-])cc1)N1CCN(Cc2cccc(Oc3ccccc3)c2)CC1
2. Cn1cc(-c2ccncc2)c(-c2ccc(OCc3ccc4ccccc4n3)cc2)n1
3. O=C(c1ccc(F)cc1)C1CCN(CCn2c(=O)[nH]c3ccccc3c2=O)CC1
4. CN(C)c1nc(N(C)C)nc(N(C)C)n1
5. CCOc1cc2c(c(F)c1OCC)C(=N)N(CC(=O)c1cc(N3CCOCC3)c(OC)c(C(C)(C)C)c1)C2

475
433
448
436
472

Take each entry in turn and give its AUC of viability dose-response curve.
1. Cn1c(CCCC(=O)O)nc2cc(N(CCCl)CCCl)ccc21
2. CCc1cc(/C(C)=N/OCc2ccc(C3CCCCC3)c(C(F)(F)F)c2)ccc1CN1CC(C(=O)O)C1
3. COc1ccc([C@@H]2CNC(=O)C2)cc1OC1CCCC1

1: 457; 2: 414; 3: 456

* * *

test system: P12-Ichikawa; test: cell viability relative to DMSO control; higher = less cytotoxic; conditions: RPMI 5 mM glucose + 10% dialyzed FBS; 48 h; 0.0632 µM
test.readout: cell viability (%)
Numbers only, in %.

Known cell viability results, listed for orientation:
CC(Oc1ccc(O)cc1)(P(=O)(O)O)P(=O)(O)O = 107
CCc1cc(/C(C)=N/OCc2ccc(C3CCCCC3)c(C(F)(F)F)c2)ccc1CN1CC(C(=O)O)C1 = 109
COC1=CC=C(C=C1)C/2=C/OC3=CC(=CC=C3C2=O)O = 108
CC(=O)SCC(Cc1ccccc1)C(=O)NCC(=O)OCc1ccccc1 (configuration not stated) = 104
CO[C@@H]1[C@H](N(C)C(=O)c2ccccc2)C[C@H]2O[C@]1(C)n1c3ccccc3c3c4c(c5c6ccccc6n2c5c31)C(=O)NC4 = 123
CN[C@@H](C)C(=O)N[C@H]1CCCC[C@H]2CC[C@@H](C(=O)N[C@@H](c3ccccc3)c3cn(CCCCc4ccc(CCCCn5cc([C@@H](NC(=O)[C@@H]6CC[C@@H]7CCCC[C@H](NC(=O)[C@H](C)NC)C(=O)N76)c6ccccc6)nn5)cc4)nn3)N2C1=O = 93

Here is another molecule to look at.
Please state recorded cell viability (tested on P12-Ichikawa) of Cn1c(=O)c2c(ncn2CC(O)CO)n(C)c1=O (configuration not stated)
114
